The measured values listed here are drawn from ChEMBL document CHEMBL5247609.

Tested on: HeLa
Assay: Antiproliferative activity against human HeLa cells assessed as reduction in cell viability after 96 hrs by MTT assay
Type: functional, cell-based
pIC50: −log10 of the molar value.
Outcome Measure: pIC50

See these solved cases before continuing.
* CC1(C)C=Cc2c(c(CN3CCC(CCOc4no[n+]([O-])c4S(=O)(=O)c4ccccc4)CC3)cc3c2[nH]c2ccc(C(C)(C)C)cc23)O1 | 5.74
* CC1(C)C=Cc2c(c(CN3CCC(Oc4no[n+]([O-])c4S(=O)(=O)c4ccccc4)CC3)cc3c2[nH]c2ccc(C(C)(C)C)cc23)O1 | 5.79

I = CC(CNC(=O)/C=C/c1cc2c([nH]c3ccc(C(C)(C)C)cc32)c2c1OC(C)(C)C=C2)Oc1no[n+]([O-])c1S(=O)(=O)c1ccccc1 (configuration not stated)
II = NCCOc1no[n+]([O-])c1S(=O)(=O)c1ccccc1
QUERY: Would you kindly point out which of I and II has the smaller pIC50 figure? To answer, give the label that identifies your chosen option.
RESULT: II
(II: 4.98, I: 6.68)

P = CC1(C)C=Cc2c(c(CN3CCC(COc4no[n+]([O-])c4S(=O)(=O)c4ccccc4)CC3)cc3c2[nH]c2ccc(C(C)(C)C)cc23)O1
Q = CC1(C)C=Cc2c(c(/C=C/C(=O)N3CCCC3COc3no[n+]([O-])c3S(=O)(=O)c3ccccc3)cc3c2[nH]c2ccc(C(C)(C)C)cc23)O1 (configuration not stated)
QUERY: I would appreciate it if you could say which entry, P or Q , has the lower pIC50 value. Please reply using the label of the selected record.
RESULT: P

----------
Tested on: HeLa
Test: Antiproliferative activity against human HeLa cells assessed as reduction in cell viability after 96 hrs by MTT assay
Assay type: functional, cell-based
pIC50: −log10 of the molar value.
Outcome Measure: pIC50

# annotated cases, reported pIC50 shown
- CC(=O)O[C@H]1C(=O)[C@@]2(C)[C@H]([C@H](OC(=O)c3ccccc3)[C@]3(O)C[C@H](OC(=O)[C@H](O)[C@@H](NC(=O)c4ccccc4)c4ccccc4)C(C)=C1C3(C)C)[C@]1(OC(C)=O)CO[C@@H]1C[C@@H]2O: 8.22
- CC1(C)C=Cc2c(c(CNCCCOc3no[n+]([O-])c3S(=O)(=O)c3ccccc3)cc3c2[nH]c2ccc(C(C)(C)C)cc23)O1: 5.12
- CC1(C)C=Cc2c(c(/C=C/C(=O)N3CCC(COc4no[n+]([O-])c4S(=O)(=O)c4ccccc4)CC3)cc3c2[nH]c2ccc(C(C)(C)C)cc23)O1: 6.37
- CC1(C)C=Cc2c(c(/C=C/C(=O)NCCCOc3no[n+]([O-])c3S(=O)(=O)c3ccccc3)cc3c2[nH]c2ccc(C(C)(C)C)cc23)O1: 6.64
- CC1(C)C=Cc2c(c(/C=C/C(=O)N3CCC(CCOc4no[n+]([O-])c4S(=O)(=O)c4ccccc4)CC3)cc3c2[nH]c2ccc(C(C)(C)C)cc23)O1: 6.62

P = CC1(C)C=Cc2c(c(/C=C/C(=O)NCCOc3no[n+]([O-])c3S(=O)(=O)c3ccccc3)cc3c2[nH]c2ccc(C(C)(C)C)cc23)O1
Q = CC1(C)C=Cc2c(c(/C=C/C(=O)N3CCC(Oc4no[n+]([O-])c4S(=O)(=O)c4ccccc4)CC3)cc3c2[nH]c2ccc(C(C)(C)C)cc23)O1
QUERY: Pick one, P or Q : lowest reported pIC50. Reply briefly: the label of your chosen item.
RESULT: Q
(Q: 5.87, P: 6.85)
